Assay: acute toxicity, LD50, rats
Conditions: rat, in vivo, iv
METRIC NAME: LD50 at 24 h

Exam item: Tell me LD50 at 24 h reported for O=C1C(CC[S+]([O-])c2ccccc2)C(=O)N(c2ccccc2)N1c1ccccc1 (stereo not shown)
Marked response: 154 mg/kg

====

Assay: acute toxicity, LD50, rats
Conditions: rat, in vivo, po
METRIC NAME: LD50 at 24 h (mg/kg)
Reply numerically in mg/kg, unit not repeated.

Exam item: Note LD50 at 24 h for the compound shown: O=C1C(CC[S+]([O-])c2ccccc2)C(=O)N(c2ccccc2)N1c1ccccc1 (stereo not shown)
Marked response: 375

Data origin: patent US4537894A
